Values compiled from PubChem BioAssay (NCI).

system: LOX IMVI melanoma; test: NCI-60 one-dose screen, 48 h; conditions: 10 µM unless noted
About 83,000 compounds went through this panel and 20% of them were active in at least one assay; those are over-represented in the sample as a whole. The source made the active and inactive calls. How the source made its calls: active means growth percent below 10; inactive means the rest.
Assign a class; possible classes are active, inactive

Reference set, count: 8
NC(=O)c1cc(I)ccc1NC(=O)/C=C/c1ccccc1; inactive
CC(=O)N1N=C(c2ccc(Nc3nc(Nc4ccccc4)nc(Nc4ccccc4)n3)cc2)CC1c1cccc([N+](=O)[O-])c1 (centres undefined); inactive
CCOC(=O)c1csc(NC(=O)COc2ccc(/C=C3\Oc4ccccc4C3=O)cc2)n1; inactive
Cc1cc(N2CCN(CCNc3ccnc4cc(Cl)ccc34)CC2)nc(N2CCOCC2)n1; inactive
CSc1nc2ccccc2cc1/C=C1/C=C(c2ccccc2)NC1=O; inactive
O=C(Nc1nc2ccc(C(=O)N3CCN(/C=C/c4ccccc4)CC3)cc2s1)c1ccc(NCCc2ccccc2)c([N+](=O)[O-])c1; inactive
CC(C)c1ccc(Cc2cnc(NC(=O)c3cc(Br)cs3)s2)cc1; inactive
O=C(O)c1cn(C2CC2)c2cc(N3CCN(Cc4ccc5ccccc5c4O)CC3)c(F)cc2c1=O; inactive

Query: Could you please tell me the result logged for COc1ccc(C/C(C)=C(/c2ccc(OCCN(C)C)cc2)c2ccc(OC(=O)NCc3ccccc3)cc2)cc1 in this assay?
Reply: active
